B1: TPR t1 (parent)
chain: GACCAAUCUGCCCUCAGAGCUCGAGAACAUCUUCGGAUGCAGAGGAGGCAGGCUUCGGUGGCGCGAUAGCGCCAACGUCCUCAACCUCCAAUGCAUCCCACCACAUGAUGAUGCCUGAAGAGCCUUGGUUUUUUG

- Variants of: B1
- procedure.text: polymerase ribozyme fitness, log enrichment relative to wild type (log ratio); higher = more active; in vitro selection for triplet polymerase activity
Cut-off -2 on polymerase ribozyme fitness (log ratio), inclusive. At or above means class 1; below means class 0.

GACCAAUCUGCCCUCAGAGCUCGAGAACAUCUUCGGAUGCAGCGGAGGCAGGCUUCGGUGGCGCGAUAGCGCCAACGUCCUCAACCUCCAAUGCAUCCCACCACAUGAUGAUACCUGAAGAGCCUUGGUUUUUUG [A43C G113A]
class 0

Please examine the following record next.
Task: Decide: is the reported value of polymerase ribozyme fitness (log ratio) for GACCAAUCGGCCCUCAGAGCUCGAGAACAUCUUCGGAUGCAGAGGAGGCAGGCUUCGGUGGCGCGAUAGAGCCAACGUCCUCAACCUCCAAUGCAUCCCACCACAUGAUGAUGCCUGAAGAGCCUUGGUUUUUUG [U9G C70A] equal to or greater than -2?
Output: class 1

Source listed as the RNAGym collection of RNA variant scans (doi:10.1073/pnas.2313332121).
